Reference source for all entries: the supplement of paper PMC10567573

B1: RBBP5 (parent)
chain: TGTSNTTAIKSIEFARKGSCFLIN

variants of: B1; test: protein stability index of a GFP-peptide fusion (GPS, HEK-293T) (PSI 1-6); higher = more stable; conditions: c terminus: a fixed tail appended;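 further: lentivirally expressed fusions sorted by FACS into six bins by GFP to DsRed ratio, PSI derived from sequencing read proportions per bin multiplied by bin number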
PROPERTY_MEASURED: protein stability index
Answers are plain numbers.

| RESIDUE_SEQUENCE | protein stability index |
| --- | --- |
| TGTSNTTSIKSIEFARKGSCFLIN [A8S] | 2.01 |
| TGTSNATAIKSIEFARKGSCFLIN [T6A] | 2.87 |
| TGTSNTTAIKSIEFARKGSCFLIC [N24C] | 2.38 |
| TGTSNFTAIKSIEFARKGSCFLIN [T6F] | 2.09 |
| TGTSNTTAIKSIEFARKGSCCLIN [F21C] | 2.44 |
| TGTSNTVAIKSIEFARKGSCFLIN [T7V] | 1.96 |
| TGTSNTTAIKSIEFARKGSKFLIN [C20K] | 2.58 |
| TGTSNTTAIKSIEFARKGSCFLIL [N24L] | 2.22 |

Return reported protein stability index values for all items listed beneath this line.
1. TGTSNRTAIKSIEFARKGSCFLIN [T6R]
2. TGTSNTTAIKSIELARKGSCFLIN [F14L]
3. TGTSNTIAIKSIEFARKGSCFLIN [T7I]
4. TGTSNTTAIKSIEFARKGSCMLIN [F21M]
5. TGTSNTTAISSIEFARKGSCFLIN [K10S]
6. TGTSNVTAIKSIEFARKGSCFLIN [T6V]

# output
1.55
2.51
2.23
3.52
2.93
1.87

Could I get protein stability index for every one of these entries?
1. TGTSNQTAIKSIEFARKGSCFLIN [T6Q]
2. TGTSNTTAIPSIEFARKGSCFLIN [K10P]
3. TGTSNTTAIKSIEFARKGSWFLIN [C20W]
4. TGTSNTTAIKSIEFARKGYCFLIN [S19Y]
5. TGTSNTTAIKSIEFARKGSCFLMN [I23M]

# output
2.12
2.38
1.63
1.26
2.49

// input: 3 variants below; output: protein stability index for each
1. TGTSNTTAIKNIEFARKGSCFLIN [S11N]
2. LGTSNTTAIKSIEFARKGSCFLIN [T1L]
3. TGTSNTTAIKSIEFARKGSCFFIN [L22F]

# output
1: 2.92; 2: 2.11; 3: 1.99

Provide protein stability index for all items below, preserving their order.
1. TMTSNTTAIKSIEFARKGSCFLIN [G2M]
2. TGTSNTTAIKSIEFARKGSCFHIN [L22H]

# output
1. 2.48
2. 2.52

Need protein stability index for each of these variants.
1. TGTSNTTRIKSIEFARKGSCFLIN [A8R]
2. TGTSNTTAIKSIEFARKCSCFLIN [G18C]

# output
1.62
1.63

Provide each entry's protein stability index from the list below.
1. TGTSNTTAIKSICFARKGSCFLIN [E13C]
2. TGTSHTTAIKSIEFARKGSCFLIN [N5H]
3. TGTSNTTAIKSIKFARKGSCFLIN [E13K]

# output
1: 1.97; 2: 2.12; 3: 2.19

I need protein stability index for every entry listed below, if you could help.
1. TGTSNTTAIKSIEFQRKGSCFLIN [A15Q]
2. TGTSNTTAIKSIEFKRKGSCFLIN [A15K]

# output
[2.51, 2.42]

# input Item under review: TGTMNTTAIKSIEFARKGSCFLIN [S4M] . Reported protein stability index?
# output 2.21
